tested on: ryegrass, Italian (Italian ryegrass, Lolium multiflorum); assay: Test A postemergence, visual injury rating 0-100; format: in vivo; settings: 31 g ai/ha, 0 to 100 scale
From the text: […]
Field: Ryegrass, Italian plant response rating. Provide a value for each of the molecules that follow.

Parameter requested: Ryegrass, Italian plant response rating. Apply to each item below.
1. CC1=[N+]([O-])[C@H](C(=O)Nc2cccc(F)c2F)[C@@H](c2ccc(C)cc2)C1
2. CC1=[N+]([O-])[C@H](C(=O)Nc2cccc(F)c2F)[C@@H](c2ccc(Cl)cc2)C1
3. CC1=[N+]([O-])[C@@H](C(=O)Nc2cccc(F)c2F)[C@H](c2cccc(C(F)(F)F)c2)C1
4. CC1=[N+]([O-])[C@@H](C(=O)Nc2cccc(F)c2F)[C@H](c2cccc(Oc3ncc(F)cc3F)c2)C1
5. CC1=[N+]([O-])C(C(=O)Nc2cccc(F)c2F)C(c2ccc(F)cc2)C1 (racemic)

Key:
1: 0; 2: 0; 3: 10; 4: 0; 5: 0
